Test system: K562;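 note: after 48 h exposure read by CellTiter-Glo luminescence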
TEST_SUMMARY: cell viability relative to vehicle control; higher = less cytotoxic
ASSAY_CONDITIONS: 10 µM; SRSF2 genotype: SRSF2 wt/wt
MEASURED_ENDPOINT: cell viability
Respond with the figure and its unit, in that order.

Recorded cell viability, per entry:
Requested read-out: cell viability. Entry: N#Cc1ccc(-c2c(-c3ncn[nH]3)sc(N3CCOCC3)c2C#N)c(F)c1
68.2%

Consider next the compound COc1cc(O)c2c(=O)cc(-c3ccc(O)c(O)c3)oc2c1 [Hydroxygenkwanin] in the same way.
88.9%

Provide reported cell viability for each item, in the same order as listed.
1. COc1cccc(/C=N/N(C(=O)C(F)(F)F)c2ccc(C)cc2C)c1
2. CCNC(=O)Nc1ccc(-c2nc3c(c(N4CCOC[C@@H]4C)n2)CCN(C2COC2)C3)cc1
3. COc1c(C)c2c(c(O)c1C/C=C(\C)CCC(=O)OCCN1CCOCC1)C(=O)OC2 [Mycophenolate mofetil (CellCept)]

1. 99.8%
2. 39.5%
3. 45.1%

Parameters: items (list). Returns: cell viability for each item.
1. CN(c1ccccc1CNc1nc(Nc2ccc3c(c2)CC(=O)N3)ncc1C(F)(F)F)S(C)(=O)=O
2. CC(C)(Cc1ccc2ccccc2c1)NC[C@@H](O)COc1cccc(Cl)c1C#N
3. O=c1cc(-c2ccc(O[C@@H]3O[C@H](CO)[C@@H](O)[C@H](O)[C@H]3O)cc2)oc2cc(O)c([C@@H]3O[C@H](CO)[C@@H](O)[C@H](O)[C@H]3O[C@@H]3OC[C@H](O)[C@H](O)[C@H]3O)c(O)c12
4. CC(C)C[C@H](NC(=O)[C@H]1O[C@@H]1C(=O)O)C(=O)NCCCCN=C(N)N

1: 16.4%; 2: 1.65%; 3: 94.2%; 4: 114%
